Provenance of the data: patent US6953785B2

# assay_target: recombinant human estrone sulfatase (Homo sapiens)
# Sequence (P08842 22-583): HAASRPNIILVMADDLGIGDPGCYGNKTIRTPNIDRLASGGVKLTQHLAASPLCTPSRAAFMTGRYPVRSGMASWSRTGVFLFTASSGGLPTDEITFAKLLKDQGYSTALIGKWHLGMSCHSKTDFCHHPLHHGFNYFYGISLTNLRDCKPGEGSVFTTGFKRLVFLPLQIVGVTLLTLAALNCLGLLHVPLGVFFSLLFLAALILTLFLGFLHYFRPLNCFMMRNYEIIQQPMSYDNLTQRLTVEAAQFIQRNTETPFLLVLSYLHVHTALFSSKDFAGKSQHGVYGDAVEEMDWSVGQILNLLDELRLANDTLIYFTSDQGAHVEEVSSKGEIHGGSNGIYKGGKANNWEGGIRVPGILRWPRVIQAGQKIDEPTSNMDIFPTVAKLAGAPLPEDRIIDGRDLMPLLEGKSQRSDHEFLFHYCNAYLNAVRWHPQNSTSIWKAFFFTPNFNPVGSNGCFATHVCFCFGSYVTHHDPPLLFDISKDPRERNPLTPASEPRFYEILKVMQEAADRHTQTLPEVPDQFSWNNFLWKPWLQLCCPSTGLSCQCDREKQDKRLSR
# method: Estrone sulfatase (steroid sulfatase) inhibition test (Method B), 4-methylumbelliferyl sulfate substrate
# Format: biochemical
# condition_label: 4-methylumbelliferyl sulfate 0.3 mmol/L, pH 7.5, 37° C., 1 hour, read-out: Inhibitory Activity against Steroid Sulfatase IC50
Response field label takes T when IC50 is strictly below 6 nM and F in all other cases.

compound	category_label
CC12CCC3c4ccc(OS(N)(=O)=O)cc4CCC3C1CC=C2C(=O)N1CCN(c2ccccn2)CC1 (stereo not shown)	T
COc1ccnc(CNC(=O)C2=CCC3C4CCc5cc(OS(N)(=O)=O)ccc5C4CCC23C)c1 (stereo not shown)	T
CC12CCC3c4ccc(OS(N)(=O)=O)cc4CCC3C1CC=C2C(=O)Nc1ccon1 (stereo not shown)	F
COCCOCCOC(=O)C1=CCC2C3CCc4cc(OS(N)(=O)=O)ccc4C3CCC12C (stereo not shown)	F
CCn1nccc1NC(=O)C1=CCC2C3CCc4cc(OS(N)(=O)=O)ccc4C3CCC12C (stereo not shown)	F
CCCNC(=O)CC1CCC2C3CCc4cc(OS(N)(=O)=O)ccc4C3CCC12C (stereo not shown)	F
COc1ccc(NC(=O)C2=CCC3C4CCc5cc(OS(N)(=O)=O)ccc5C4CCC23C)cn1 (stereo not shown)	T
CC12CCC3c4ccc(OS(N)(=O)=O)cc4CCC3C1CC=C2C(=O)NCCCc1ccncc1 (stereo not shown)	T
CC(C)(CO)NC(=O)C1=CCC2C3CCc4cc(OS(N)(=O)=O)ccc4C3CCC12C (stereo not shown)	F
CC12CCC3c4ccc(OS(N)(=O)=O)cc4CCC3C1CC=C2c1cccnc1 (stereo not shown)	F
Cc1cnc(CNC(=O)C2=CCC3C4CCc5cc(OS(N)(=O)=O)ccc5C4CCC23C)cn1 (stereo not shown)	F
CCOC(=O)CC1CCC2C3CCc4cc(OS(N)(=O)=O)ccc4C3CCC12C (stereo not shown)	F
CC12CCC3c4ccc(OS(N)(=O)=O)cc4CCC3C1CCC2CC(=O)N1CCOCC1 (stereo not shown)	F
Cc1coc(C2=CCC3C4CCc5cc(OS(N)(=O)=O)ccc5C4CCC23C)n1 (stereo not shown)	F
